Test: label from the status in PepcDB records
Measure name: protein production

Take a look at these entries with their results.
DDNSYSLGDIWIAVATVVPEGNNVYYLRLDDGDKLWPAATNYPNYQPKPNQRALVNFTILADSTQSNLGGFSHYIKVNAIHNILTKSIAKNEGAANDSIYGTDPVSIYNNNMWIGDGYLNIYFETLWGGKTAHFINLIQPDAENDPYTLEFRHNAYDDPQYTIGAGRVAFNLSSLPDTKGETVDLVVNYWTSEGKQAYKLKYNSDKTKMEDTSQGYTNDSISNITDMK ... not failed
QKRPLIMIGGSSSTRTDFDDIVRSLNEQQHHPLITLTVKANQKLAFKEKRVENTNLNDALIVIFFEDSTDSTENIMTQTNGLAKAIRYLQRHQHLTTANALGYSNGGLIWSRYLAGLSSSKPLAVHDLMLIGTPFLGTDAAH ... failed
MNVFQMLRLPDLVSLLNLICGIGSIAVAAQSDSFGFALILLLLAAVADGADGYIARRFKGGELGEQLDSLADAVSFGVAPALLIFLEFGVEEPIVGIFAGLYAVCGVLRLARFNSSISVPKAGFEGLPITAGCIMLVTYLLLGESFVIVDVLLALTLALSILMVSTVNYPKIRNIKILAFVAAVFGITMLLYFIDVQYMRVFSFLPFILMLSYLFSPFLKIPVISIATSKDYGNRKGAKAEGRKEKQ ... failed
MAEDQTVLAIDIGGSHVKIGLSTDGEERKVESGKTMTGPEMVAAVTAMAKDMTYDVIAMGYPGPVVHNKPLREPVNLGEGWVGYDYEGAFGRPVRIVNDALMQAIGSYNGGRMLFLGLGTGLGAAMIVENVAQPMEIAHLPYRKGKTYEHYVSEAYREKKGNAKWQKRVQDVVERLSAALEPDEVVIGGGNVERLENLPPKCRRGDNAMAFEGGFRLWKNADLIV ... not failed
MSKSEEKQELPLETSPYTKYEDIEDYKKNAYGTSGHQDVKPGHGGGTTDAPTPSGDAAPSAIDSANQKAKK ... failed

**Query** // query protein production value for entry "MEWFDKISEFMEGLPEWLQAHPRYGYLIVAGILLLWLVGIVCGWRWTYSRPGSWEGNFWLGTLGERSYRFWLGLIVAAATGCALLLFSVTG"
**Result** failed

**Query** Try "MLKTLLTSDVIQVVSQAKDWRDAIAISCQPLIDNGAVEARYVEAIYRSHEAIGPYYVVGPGIAMPHARPEDGVNRLSLALTVITEGVTFNAEGNDPVKLLIVLAATDSNSHIEAISQLAQLFDTASDVQALLNAKTPQDILSVIARY" next.
**Result** not failed

**Query** Try "METLNDIKKILINVGLYQGFDLTDPKVSEEVNHETANMKWIKDYTSDGNWDNEFKEDLKNFLDYMEVCQLALNDKNFKIASNSLFMAMIYAGNLSLIFDSIKTDISTLLSAEYKKNSFSWPSLDE" next.
**Result** not failed

**Query** Try "ESLKAGSSWQCDTCLLQNKVTDNKCIACQAAKLSPRDTAKQTGIETPNKSGKTTLSASGTGFGDKFKPVIGTWDCDTCLVQNKPEAIKCVACETPKPGTCVKRALTLTVV" next.
**Result** failed

====

Assay: label from the status in PepcDB records
Measure name: protein production

MAEEHRCETPEGHRLCVNNCGFFGSSATMNLCSNCYGDLCLKQQQQASMKSTVESSLSPVIAPVLENYAAELEIPTTKKTEEKKPIQIPTEQPSPPQRPNRCTVCRKRVGLTGFMCRCGTTFCGSHRYPEVHGCTFDFKSAGREEIAKANPLVIAAKLQKI ... failed
MNLLPGFAYIEMESISNLTPLVMKTLAGFIAGIPKAELHLHIEGTLEPEMMLALGERNGVPLPYPDADAAKSAYHFSDLQSFLDIYYRATAVLVTEQDFYDLTIAYLQKAVSRKVCHAEIFFDPQSHIARGVPFETVVGGIGQALSDANGGLGISTKLIMCILRHLSEEDGNAVLEQAVRWKRWISGIGLDSSEKGNPPGKFRELFAKARHYGFFTVAHAGEEGNASSISEALDALHVIRIDHGVHCMEDPVLVERLRLDRIPLTICPLSNVRLNVFGSMREHNLKTMLDAGLCVTINSDDPAYFGGYVNENYLAAAEALNLDRNDIIRLARNSFEASVLSNVQKKLYLQKLDHYVDSFIQ ... failed
